// provenance: ChEMBL document CHEMBL5724914

# protocol-summary: The drug is tested on WLS-082 corresponding to human gut metagenome with ENA study accession number: PRJEB37062 and ENA sample accession number: ERS12561751 for biotransformation under anaerobic condition. The drug concentrations were measured over 9 timepoints collected between 0 and 24 hours of incubation by liquid-chromatography-coupled mass spectrometry (LC–MS); note: call rule not given here
# cond: 2 µM
measured-property: Bacterial Biotransformation

# molecule, measured-result
records = [
    ("COC(=O)[C@H](c1ccccc1Cl)N1CCc2sccc2C1.O=S(=O)(O)O [CLOPIDOGREL BISULFATE]", "Compound metabolized"),
    ("CC(=O)OCC(CCn1cnc2cnc(N)nc21)COC(C)=O", "Compound metabolized"),
    ("CC(C)c1nc(N(C)S(C)(=O)=O)nc(-c2ccc(F)cc2)c1/C=C/[C@@H](O)C[C@@H](O)CC(=O)[O-].CC(C)c1nc(N(C)S(C)(=O)=O)nc(-c2ccc(F)cc2)c1/C=C/[C@@H](O)C[C@@H](O)CC(=O)[O-].[Ca+2]", "Compound metabolized"),
    ("CN1CCC(=C2c3ccccc3CC(=O)c3sccc32)CC1.O=C(O)/C=C/C(=O)O [KETOTIFEN FUMARATE]", "Compound NOT metabolized"),
    ("CN1CCN2c3ccccc3Cc3ccccc3C2C1 (configuration not stated)", "Compound NOT metabolized"),
    ("COc1ccc(CN2CCNCC2)c(OC)c1OC.Cl.Cl [TRIMETAZIDINE DIHYDROCHLORIDE]", "Compound NOT metabolized"),
    ("COc1cc2nc(N3CCN(C(=O)C4CCCO4)CC3)nc(N)c2cc1OC (configuration not stated)", "Compound metabolized"),
    ("O=C(NC(Cc1cc(=O)[nH]c2ccccc12)C(=O)O)c1ccc(Cl)cc1 (configuration not stated) [REBAMIPIDE]", "Compound NOT metabolized"),
    ("Clc1cccc(Cl)c1N=C1NCCN1", "Compound NOT metabolized"),
    ("CC(=O)O[C@H]1C(=O)[C@@]2(C)[C@H]([C@H](OC(=O)c3ccccc3)[C@]3(O)C[C@H](OC(=O)[C@H](O)[C@@H](NC(=O)c4ccccc4)c4ccccc4)C(C)=C1C3(C)C)[C@]1(OC(C)=O)CO[C@@H]1C[C@@H]2O", "Compound metabolized"),
    ("CC(=O)O[C@]1(C(C)=O)CC[C@H]2[C@@H]3C=C(C)C4=CC(=O)CC[C@]4(C)[C@H]3CC[C@@]21C [MEGESTROL ACETATE]", "Compound metabolized"),
    ("CCOC(=O)C1=C[C@]2(CC)CCCN3CCc4c(n1c1ccccc41)[C@@H]32", "Compound metabolized"),
    ("CCOc1cc(CC(=O)N[C@@H](CC(C)C)c2ccccc2N2CCCCC2)ccc1C(=O)O [REPAGLINIDE]", "Compound metabolized"),
    ("CN(C)CCC=C1c2ccccc2COc2ccccc21 [DOXEPIN]", "Compound NOT metabolized"),
    ("COc1ccc2cc([C@H](C)C(=O)O)ccc2c1", "Compound metabolized"),
    ("CC#C[C@]1(O)CC[C@H]2[C@@H]3CCC4=CC(=O)CCC4=C3[C@@H](c3ccc(N(C)C)cc3)C[C@@]21C", "Compound metabolized"),
    ("O=C1N=C([O-])NC1(c1ccccc1)c1ccccc1.[Na+] [PHENYTOIN SODIUM]", "Compound metabolized"),
    ("CCOC(=O)[C@H](CCc1ccccc1)N[C@@H](C)C(=O)N1Cc2ccccc2C[C@H]1C(=O)O", "Compound metabolized"),
    ("OC(c1cc(C(F)(F)F)nc2c(C(F)(F)F)cccc12)C1CCCCN1 (configuration not stated)", "Compound metabolized"),
    ("CCOC(=O)C1=C(C)NC(C)=C(C(=O)OC)C1c1cccc([N+](=O)[O-])c1 (configuration not stated)", "Compound metabolized"),
    ("CC(C)(C)NCC(O)COc1cccc2c1CC(O)C(O)C2 (configuration not stated)", "Compound NOT metabolized"),
    ("CC(=O)CCCCn1c(=O)c2c(ncn2C)n(C)c1=O", "Compound NOT metabolized"),
    ("CC1=C(CC(=O)O)c2cc(F)ccc2/C1=C\\c1ccc([S+](C)[O-])cc1 (configuration not stated)", "Compound metabolized"),
    ("CN1CCC[C@@H]1CCO[C@](C)(c1ccccc1)c1ccc(Cl)cc1.O=C(O)/C=C/C(=O)O [CLEMASTINE FUMARATE]", "Compound NOT metabolized"),
    ("CC(C)NCC(O)COc1ccc(CC(N)=O)cc1 (configuration not stated)", "Compound NOT metabolized"),
    ("CN(C)C(=O)Oc1cccc([N+](C)(C)C)c1.[Br-] [NEOSTIGMINE BROMIDE]", "Compound NOT metabolized"),
    ("CN(CCOc1ccc(CC2SC(=O)NC2=O)cc1)c1ccccn1.O=C(O)/C=C\\C(=O)O (configuration not stated) [ROSIGLITAZONE MALEATE]", "Compound NOT metabolized"),
    ("CCCN1C[C@H](CSC)C[C@@H]2c3cccc4[nH]cc(c34)C[C@H]21.CS(=O)(=O)O [PERGOLIDE MESYLATE]", "Compound NOT metabolized"),
    ("Nc1nc(N)nc(-c2cc(Cl)ccc2Cl)n1.O=C(O)/C=C\\C(=O)O [IRSOGLADINE MALEATE]", "Compound NOT metabolized"),
    ("CCN(C)C(=O)Oc1cccc([C@H](C)N(C)C)c1.O=C(O)C(O)C(O)C(=O)O [RIVASTIGMINE TARTRATE]", "Compound NOT metabolized"),
    ("C[N+]12CCC(CC1)C(OC(=O)C(O)(c1ccccc1)c1ccccc1)C2.[Br-] (configuration not stated) [CLIDINIUM BROMIDE]", "Compound NOT metabolized"),
    ("N#Cc1ccc2c(c1)N(CCCN1CCC(O)CC1)c1ccccc1S2", "Compound NOT metabolized"),
]
